system: CRF-binding protein / CRF receptor 2 complex (human); assay: agonists of CRF-BP/CRF-R2 complex, primary screen, cell-based, HEK293, calcium dye fluorescence, uHTS (AID 588473); details: calcium dye fluorescence (FLIPR), at 13.2 µM, percent of saturating CRF peptide response
Out of some 350,000 compounds screened, about 1,600 (0.46%) were called active.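 Rule for the calls: active = activation of at least 50%, plus an integration ratio under a set limit after plate pattern correction; inactive = the rest.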 The entries come from a sample that favours actives as a whole.
Outcome field: choose from active, inactive

Request: GET /call?item= "O=S(=O)(c1cccc(C(F)(F)F)c1)N1CCN(c2cnccn2)CC1" returns the recorded outcome of this test.
Result: inactive

Request: Query "CN(C)S(=O)(=O)c1ccc(C(=O)NCC2(N3CCOCC3)CCCCC2)cc1" next
Result: inactive

Request: Query "CNc1nc2c(C)cccn2c(=O)c1C=Nc1ccc(OC)cc1" next
Result: inactive

Request: Query CC1COc2ccccc2N1S(=O)(=O)c1ccccc1 (configuration not stated) next
Result: inactive

Request: Query "Cc1cccc(-c2nnc(SCC(=O)O)n2Cc2ccccc2)c1" next
Result: inactive

Request: Query O=C(CN1CCN(C2CCS(=O)(=O)C2)CC1)N1N=C(c2ccc(Cl)cc2)CC1c1ccco1 (configuration not stated) next
Result: inactive

Request: Query "COc1ccccc1-c1nnc(-c2ccc(F)cc2)o1" next
Result: inactive

Request: Query "CCn1c(=O)c2ccccc2n(CC(=O)N2CCCc3ccccc32)c1=O" next
Result: inactive

Request: Query "O=c1c2cc(Br)ccc2nc(-c2cccc(Cl)c2)n1O" next
Result: active

Request: Query "COC(=O)c1cc(C(=O)OCC(=O)Nc2cc(C)on2)cc([N+](=O)[O-])c1" next
Result: inactive

Request: Query Cc1nn(C)c(C)c1C(C)NC(=O)c1ccc(OC2CCN(Cc3ccccn3)CC2)cc1 (configuration not stated) next
Result: inactive

Request: Query "NC(N)=Nc1nc2ccc(Br)cc2c(=O)[nH]1" next
Result: inactive

Request: Query "Cc1ccc2c(c1)nnc1nnc(SCC(=O)O)n12" next
Result: active

Request: Query CC(C)CCNC(=O)CC1C(=O)N(Cc2ccccc2)C(C)c2nc3ccccc3n21 (configuration not stated) next
Result: inactive

Request: Query Cc1cc(NS(=O)(=O)c2ccc(NC(=O)C(C)Oc3cccc(C)c3C)cc2)nc(C)n1 (configuration not stated) next
Result: inactive

Request: Query "NC(=O)c1cc(-c2cccnc2)nc2ccc(Br)cc12" next
Result: inactive

Request: Query "C=CCC1=C/C(=C\c2c(N)n3nc(CC(=O)N4CCOCC4)sc3nc2=O)C=C(OC)C1=O" next
Result: active

Request: Query "Cc1cccn2c(=O)c(/C=C3\SC(=S)N(CC(C)C)C3=O)c(NCCCOC(C)C)nc12" next
Result: active

Request: Query "CCOC(=O)c1c(NC(C)=O)sc2c(O)c(Br)ccc12" next
Result: inactive

Request: Query "CCCS(=O)(=O)N1CCC(C(=O)NCCc2ccc(OC)c(OC)c2)CC1" next
Result: inactive

Request: Query "COc1cc(/C=C2\C(=N)N3N=C(CC(=O)N4CCOCC4)SC3=NC2=O)cc(OC)c1OC" next
Result: inactive

Request: Query "CCCN(CCC)c1nc2c(C)cccn2c(=O)c1/C=C1/SC(=S)N(Cc2ccco2)C1=O" next
Result: inactive

Data provenance is PubChem BioAssay AID588473.
